Test system: Pseudomonas fluorescens HPPD polypeptide (wild-type and mutants)
Assay: Coupled HPPD activity assay: turnover and residual turnover in crude HPPD polypeptide extracts with and without Cmpd. 1
Format: biochemical
Conditions: 100 μM Cmpd. 1, normalised to turnover without inhibitor

| Molecule | Residual turnover [%] |
| --- | --- |
| SEQ ID NO:23 (protein, mutant HPPD polypeptide) MADLYENPMGLMGFEFIEFASPTPGTLEPIFEIMGFTKVATHRSKNVHLYRQGEINLILNNEPNSIASYFAAEHGPSVCGMAFRVKDSQKAYNRALELGAQPIHIDTGPMELNLPAIKGIGGAPLYLIDRFGEGSSIYDIDFVYLEGVERNPVGAGLKVIDHLTHNVYRGRMVYWANFYEKLFNFREARYFDIKGEYTGLTSKAMSAPDGMIRIPLNEESSKGAGQIEEFLMQFNGEGIQHVAFLTDDLVKTWDALKKIGMRFMTAPGDEYYEMLEGRLPDHGEPVDQLQARGILLDGSSVEGDKRLLLQIFSEQLMGPVFFEFIQRKGDDGFGPHSFKVLFESIERDQVRRGVLTAD | 48% |
